EXPERIMENTAL TARGET: GALR3 single mutant Y^103F (Homo sapiens, UniProt O60755, Y103F)
Construct: expressed in transfected cells; host or cells: HEK293 cells stably expressing Gqi
Sequence (O60755 1-368 Y103F): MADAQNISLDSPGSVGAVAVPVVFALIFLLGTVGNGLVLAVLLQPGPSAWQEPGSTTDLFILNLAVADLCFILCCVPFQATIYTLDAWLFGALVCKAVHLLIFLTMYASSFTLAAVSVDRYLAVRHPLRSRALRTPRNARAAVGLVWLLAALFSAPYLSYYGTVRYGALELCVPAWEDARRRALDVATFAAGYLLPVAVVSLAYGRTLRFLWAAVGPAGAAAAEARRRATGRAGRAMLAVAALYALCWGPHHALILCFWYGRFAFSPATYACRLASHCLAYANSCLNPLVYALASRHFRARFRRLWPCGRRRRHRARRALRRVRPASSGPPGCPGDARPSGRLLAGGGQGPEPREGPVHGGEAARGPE
PROCEDURE SUMMARY: SRE-luc luciferase assay, GALR3 Y103F
Format: cell-based
CONDITION NOTES: GALR3 Y^103F; SRE-luc in HEK293 Gqi cells, ligand 6 h; mean ± S.E.; SEM
Ends that are not written are not given here.
VALUE KIND: EC50 (nM)

(I) NWTPQAALYLKGAQ-NH2 [A^7-SPX]
(II) NWTPNAMLYLKGAQ-NH2 [N^5-SPX]
Prompt: Could you check which of I and II has a smaller value for EC50? Output the label that corresponds to your choice.
Response: I
(I: 302 nM, II: 676 nM)

====

EXPERIMENTAL TARGET: GALR3 single mutant G^192S (Homo sapiens, UniProt O60755, G192S)
Construct: expressed in transfected cells; host or cells: HEK293 cells stably expressing Gqi
Sequence (O60755 1-368 G192S): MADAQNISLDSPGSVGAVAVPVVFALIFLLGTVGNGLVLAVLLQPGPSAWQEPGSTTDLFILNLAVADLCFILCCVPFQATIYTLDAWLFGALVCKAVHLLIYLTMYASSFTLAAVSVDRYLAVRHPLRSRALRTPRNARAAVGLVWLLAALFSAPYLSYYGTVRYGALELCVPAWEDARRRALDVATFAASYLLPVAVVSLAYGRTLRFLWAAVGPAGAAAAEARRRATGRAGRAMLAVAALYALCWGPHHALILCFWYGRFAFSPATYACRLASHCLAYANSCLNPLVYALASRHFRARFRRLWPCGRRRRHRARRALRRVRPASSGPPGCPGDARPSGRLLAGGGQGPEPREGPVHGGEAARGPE
PROCEDURE SUMMARY: SRE-luc luciferase assay, GALR3 G192S
Format: cell-based
CONDITION NOTES: GALR3 G^192S; SRE-luc in HEK293 Gqi cells, ligand 6 h; mean ± S.E.; SEM
Ends that are not written are not given here.
VALUE KIND: pEC50
Reminder that pEC50 means the negative base-10 logarithm of the concentration expressed in mol/L.

Prompt: Return reported pEC50. Input substance: NWTPQAMLYLKGPQ-NH2 [P^13-SPX]
Response: 6.45

====

EXPERIMENTAL TARGET: GALR3 double mutant L^100F, Y^103F (Homo sapiens, UniProt O60755, L100F/Y103F)
Construct: expressed in transfected cells; host or cells: HEK293 cells stably expressing Gqi
PROCEDURE SUMMARY: SRE-luc luciferase assay, GALR3 L100F,Y103F
Assay type: cell-based
CONDITION NOTES: GALR3 L^100F, SRE-luc in HEK293 Gqi cells, ligand 6 h, mean ± S.E., SEM
Ends that are not written are not given here.
VALUE KIND: EC50 (nM)

{"columns": ["SUBSTANCE", "EC50 (nM)"],
 "data": [
  ["NWTPNAMLYLKGAQ-NH2 [N^5-SPX]", 174],
  ["NWTPQAALYLKGAQ-NH2 [A^7-SPX]", 155]
]}
